target: hH2R-Gsαs fusion protein (Homo sapiens); assay: Radioligand saturation binding on Sf9 membranes; settings: membranes of Sf9 insect cells expressing hH2R-Gsαs
Sequence (P25021+P63092 fused): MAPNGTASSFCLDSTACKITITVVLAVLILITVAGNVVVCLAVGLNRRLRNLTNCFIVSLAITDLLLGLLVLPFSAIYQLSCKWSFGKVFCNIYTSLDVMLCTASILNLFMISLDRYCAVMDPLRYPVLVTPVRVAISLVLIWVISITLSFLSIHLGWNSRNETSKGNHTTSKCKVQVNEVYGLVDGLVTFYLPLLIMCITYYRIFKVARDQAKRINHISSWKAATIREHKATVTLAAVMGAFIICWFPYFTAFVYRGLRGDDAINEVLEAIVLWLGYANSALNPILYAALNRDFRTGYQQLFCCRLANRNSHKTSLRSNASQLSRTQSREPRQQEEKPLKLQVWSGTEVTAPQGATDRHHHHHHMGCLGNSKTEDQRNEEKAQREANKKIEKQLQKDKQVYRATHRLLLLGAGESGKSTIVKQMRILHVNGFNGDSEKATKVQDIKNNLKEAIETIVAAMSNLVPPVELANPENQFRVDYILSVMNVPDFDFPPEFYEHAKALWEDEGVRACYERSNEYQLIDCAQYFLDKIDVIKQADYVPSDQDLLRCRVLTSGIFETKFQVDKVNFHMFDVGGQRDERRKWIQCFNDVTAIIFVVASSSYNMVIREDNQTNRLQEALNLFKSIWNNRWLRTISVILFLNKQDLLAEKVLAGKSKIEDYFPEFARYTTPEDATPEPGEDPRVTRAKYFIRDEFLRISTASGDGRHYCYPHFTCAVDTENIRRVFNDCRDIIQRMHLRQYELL
Measured Endpoint: Kd

>>> result("[3H]CC([3H])C(=O)NCCCCCCNc1c(NCCCOc2cccc(CN3CCCCC3)c2)c(=O)c1=O (stereo not shown)")
"11.2 nM"
